# ASSAY_OVERVIEW: molar heat capacity at constant pressure
# RECORDED_CONDITIONS: 298.15 K; 101.33 kPa; Crystal
Measured molar heat capacity at constant pressure, listed per entry.
Numeric answer only, unit J/K/mol assumed.

> print(dat)
                                   molecule                      experimental.readout  measurement
1  Cn1ccc(=O)[nH]c1=O [1-methyl-2,4(1H,3H)-pyrimidinedione]  molar heat capacity at constant pressure        156.9
2  CCCc1cc(=O)n(C)c(=O)n1C [2,4(1H,3H)-pyrimidinedione, 1,3-dimethyl-6-propyl-]  molar heat capacity at constant pressure        287.2

GET /value?item= Cc1cc(=O)n(C)c(=O)n1C [1,3,6-trimethyl-2,4(1H,3H)-pyrimidinedione] &field=molar heat capacity at constant pressure returns 212.6

Please fill in: molar heat capacity at constant pressure reported for O=[N+]([O-])c1cnc(O)nc1O [2,4-pyrimidinedione, 5-nitro-] = 167.2

* * *

# ASSAY_OVERVIEW: molar heat capacity at constant pressure
# RECORDED_CONDITIONS: 338.15 K; 101.33 kPa; Crystal
Values of molar heat capacity at constant pressure strictly less than 200 J/K/mol map to Fulfilled, and values of at least 200 J/K/mol map to Not fulfilled.

> print(dat)
                   compound  class.assignment
1   O=c1[nH]cc(I)c(=O)[nH]1         Fulfilled
2  Cc1c(C)n(C)c(=O)n(C)c1=O     Not fulfilled
3     Cc1cc(=O)[nH]c(=O)n1C     Not fulfilled

# strict comparison: is reported molar heat capacity at constant pressure < 200 J/K/mol? input = "O=c1cc(Cl)[nH]c(=O)[nH]1"
Fulfilled

State whether 200 J/K/mol exceeds molar heat capacity at constant pressure recorded for "Cc1cc(=O)n(C)c(=O)n1C" .
Not fulfilled

* * *

Each entry below lists one item and its recorded molar heat capacity at constant pressure value.
# ASSAY_OVERVIEW: molar heat capacity at constant pressure
# RECORDED_CONDITIONS: 313.15 K; 101.33 kPa; Crystal
Number only, in J/K/mol; omit the unit.

> print(dat)
                              mol  measurement
1            O=c1cc[nH]c(=O)[nH]1          143
2              Cn1ccc(=O)[nH]c1=O        190.9
3         CCCc1cn(C)c(=O)n(C)c1=O          303
4              Cn1c(=O)cc[nH]c1=O          193
5  O=c1[nH]cc(C(F)(F)F)c(=O)[nH]1        190.3

Data point: "Cc1c[nH]c(=O)[nH]c1=O" ; molar heat capacity at constant pressure = 178.7

In plain terms, "Cc1cc(=O)[nH]c(=O)n1C" has a documented molar heat capacity at constant pressure of 202.6

The compound "O=c1cc(Cl)[nH]c(=O)[nH]1" showed molar heat capacity at constant pressure equal to 140.8

What the record says about "Cn1ccc(=O)n(C)c1=O" : molar heat capacity at constant pressure is 191.2

Value of molar heat capacity at constant pressure reported for the compound "O=c1[nH]cc(I)c(=O)[nH]1" is 159.8

* * *

# ASSAY_OVERVIEW: molar heat capacity at constant pressure
# RECORDED_CONDITIONS: 308.15 K; 101.33 kPa; Crystal
Numbers after ± are expanded uncertainties.
EXPERIMENTAL_READOUT: molar heat capacity at constant pressure
Respond with the figure and its unit, in that order.

Previously resolved entries follow.
> print(dat)
                                   compound          measurement
1                      O=c1cc[nH]c(=O)[nH]1  140.9 ± 4.9 J/K/mol
2                   Cc1cc(=O)n(C)c(=O)[nH]1    191.4 ± 6 J/K/mol
3                        Cn1ccc(=O)[nH]c1=O  179.6 ± 5.6 J/K/mol
4  Cn1c2c(c(=O)n(C)c1=O)CCCC2 [1,3-dimethyl-5,6,7,8-tetrahydroquinazoline-2,4(1H,3H)-dione]  296.2 ± 9.2 J/K/mol
5               Cn1c2c(c(=O)n(C)c1=O)CCCCC2     329 ± 10 J/K/mol
6                     Cc1cc(=O)[nH]c(=O)n1C  197.9 ± 7.2 J/K/mol

Entry Cc1nc(O)nc(O)c1C [2,4-dihydroxy-5,6-dimethylpyrimidine] — recorded molar heat capacity at constant pressure = 203.2 ± 6.3 J/K/mol

Looking up "Oc1ncc(Cl)c(O)n1" , I see its molar heat capacity at constant pressure listed as 142.1 ± 4.4 J/K/mol

// "CCc1cc(=O)n(C)c(=O)n1C" : molar heat capacity at constant pressure value = 245.3 ± 9.7 J/K/mol

* * *

# ASSAY_OVERVIEW: molar heat capacity at constant pressure
# RECORDED_CONDITIONS: 308.15 K; 101.33 kPa; Crystal
Reported molar heat capacity at constant pressure values for the following molecules.
Express it in J/K/mol; write the number only.

> print(dat)
                                   molecule     unit  measurement
1  CCCCc1cc(=O)n(C)c(=O)n1C [2,4(1H,3H)-pyrimidinedione, 6-butyl-1,3-dimethyl-]  J/K/mol        299.4
2           Cc1c[nH]c(=O)[nH]c1=O [thymine]  J/K/mol        173.7
3  Cc1c(C)n(C)c(=O)n(C)c1=O [2,4(1H,3H)-pyrimidinedione, 1,3,5,6-tetramethyl-]  J/K/mol          254

Looking up CCCc1cn(C)c(=O)n(C)c1=O [2,4(1H,3H)-pyrimidinedione, 1,3-dimethyl-5-propyl-] , I see its molar heat capacity at constant pressure listed as 302.8

* * *

Listed below: molar heat capacity at constant pressure values for each entry.
# ASSAY_OVERVIEW: molar heat capacity at constant pressure
# RECORDED_CONDITIONS: 318.15 K; 101.33 kPa; Crystal
Respond numerically; units are J/K/mol and should not be typed.

> print(dat)
                          compound                      experimental.readout     unit  measurement
1  Cc1c[nH]c(=O)[nH]c1=O [thymine]  molar heat capacity at constant pressure  J/K/mol        184.3

Field molar heat capacity at constant pressure (entry O=c1[nH]cc(F)c(=O)[nH]1 [5-fluoro-2,4(1H,3H)-pyrimidinedione] ) reads 142

* * *

# ASSAY_OVERVIEW: molar heat capacity at constant pressure
# RECORDED_CONDITIONS: 323.15 K; 101.33 kPa; Crystal
Overview of reported molar heat capacity at constant pressure across a group of compounds:
Please give a number only; it is taken to be in J/K/mol.

Worked examples, 8 compounds total:
> print(dat)
                                   compound     unit  measurement
1                     Cc1cc(=O)n(C)c(=O)n1C  J/K/mol        223.4
2                      O=c1cc[nH]c(=O)[nH]1  J/K/mol          149
3                   CCCc1cn(C)c(=O)n(C)c1=O  J/K/mol        308.4
4                     Cc1cn(C)c(=O)[nH]c1=O  J/K/mol        198.5
5  Cc1cc(O)nc(O)n1 [2,4-dihydroxy-6-methylpyrimidine]  J/K/mol        181.4
6                     Cc1c[nH]c(=O)[nH]c1=O  J/K/mol        189.9
7                    CCc1cc(=O)n(C)c(=O)n1C  J/K/mol        259.6
8               Cn1c2c(c(=O)n(C)c1=O)CCCCC2  J/K/mol        347.9

Kindly note the recorded molar heat capacity at constant pressure for "Cc1cc(=O)n(C)c(=O)[nH]1" , which is 200.3

molar heat capacity at constant pressure measured on "CCc1cn(C)c(=O)n(C)c1=O" = 267.4

// field: molar heat capacity at constant pressure; key: "Cn1ccc(=O)n(C)c1=O" ; value = 196.4

Sample "O=c1cc(Cl)[nH]c(=O)[nH]1" ; molar heat capacity at constant pressure observed: 144.7

* * *

# ASSAY_OVERVIEW: molar heat capacity at constant pressure
# RECORDED_CONDITIONS: 303.15 K; 101.33 kPa; Crystal
Quick rule: molar heat capacity at constant pressure of at least 200 J/K/mol means criterion met, below that means criterion not met.

> print(dat)
                   compound   class.assignment
1  O=c1[nH]cc(Br)c(=O)[nH]1  criterion not met

Check the entry "CCCCc1cc(=O)n(C)c(=O)n1C" : does molar heat capacity at constant pressure equal or exceed 200 J/K/mol?
criterion met

Decide: molar heat capacity at constant pressure of "Cn1c(=O)cc[nH]c1=O" >= 200 J/K/mol?
criterion not met
